Quick list: pIC50 per entry.
system-under-test: Aldo-keto reductase family 1 member B1 (Homo sapiens, UniProt P15121)
assay-name: Inhibition of recombinant human aldose reductase using dl-glyceraldehyde as substrate after 10 mins by spectrophotometry
pIC50: −log10 of the molar value.
endpoint: pIC50

compound	test-value
CC(CC(=O)C[C@@H](C)[C@H]1CC(=O)[C@@]2(C)C3=C(C(=O)[C@@H](O)[C@]12C)[C@@]1(C)CC[C@H](O)C(C)(C)[C@@H]1CC3=O)C(=O)O (stereo not given in full)	< 3.71
CC(CC(=O)C[C@@H](C)[C@H]1CC(=O)[C@@]2(C)C3=C(C(=O)[C@@H](O)[C@]12C)[C@@]1(C)CC[C@H](O)C(C)(C)[C@@H]1C[C@@H]3O)C(=O)O (stereo not given in full)	< 3.73
C[C@H](CC(=O)C[C@@H](C)[C@H]1C[C@H](O)[C@@]2(C)C3=C(C(=O)C[C@]12C)[C@@]1(C)CCC(=O)C(C)(C)[C@@H]1C[C@@H]3O)C(=O)O	< 3.71
CC(=O)O[C@@H]1C(=O)C2=C([C@@H](O)C[C@H]3C(C)(C)[C@@H](O)CC[C@]23C)[C@]2(C)C(=O)C[C@H]([C@H](C)CC(=O)CC(C)C(=O)O)[C@@]12C (stereo not given in full)	< 3.76
CC(CC(=O)C[C@@H](C)[C@H]1CC(=O)[C@@]2(C)C3=C(C(=O)C[C@]12C)[C@@]1(C)CCC(=O)C(C)(C)[C@@H]1C[C@@H]3O)C(=O)O (stereo not given in full)	< 3.71

* * *

system-under-test: Aldo-keto reductase family 1 member B1 (Homo sapiens, UniProt P15121)
assay-name: Inhibition of recombinant human aldose reductase using dl-glyceraldehyde as substrate after 10 mins by spectrophotometry
Quick list: IC50 per entry.

compound	IC50
C[C@H](CC(=O)C[C@@H](C)[C@H]1C[C@H](O)[C@@]2(C)C3=C(C(=O)C[C@]12C)[C@@]1(C)CC[C@H](O)C(C)(C)[C@@H]1C[C@@H]3O)C(=O)O	43.8 µM
C/C(=C\C(=O)CC(C)C(=O)O)[C@H]1C[C@H](O)[C@@]2(C)C3=C(C(=O)C[C@]12C)[C@@]1(C)CCC(=O)C(C)(C)[C@@H]1C[C@@H]3O (some centres not stated)	119 µM
CC(CC(=O)C[C@@H](C)[C@H]1C[C@H](O)[C@@]2(C)C3=C(C(=O)C[C@]12C)[C@@]1(C)CC[C@H](O)C(C)(C)[C@@H]1CC3)C(=O)O (some centres not stated)	> 199 µM
C[C@H](CC(=O)C[C@@H](C)[C@H]1CC(=O)[C@@]2(C)C3=C(C(=O)C[C@]12C)[C@@]1(C)CCC(=O)C(C)(C)[C@@H]1C[C@@H]3O)C(=O)O	> 194 µM
COC(=O)[C@H](C)CC(=O)C[C@@H](C)[C@H]1C[C@H](O)[C@@]2(C)C3=C(C(=O)C[C@]12C)[C@@]1(C)CC[C@H](O)C(C)(C)[C@@H]1C[C@@H]3O	> 184 µM
CC(=O)O[C@@H]1C(=O)C2=C(C(=O)C[C@H]3C(C)(C)[C@@H](O)CC[C@]23C)[C@]2(C)C(=O)C[C@H]([C@H](C)CC(=O)CC(C)C(=O)O)[C@@]12C (some centres not stated)	> 175 µM
CC(CC(=O)C[C@@H](C)[C@H]1C[C@H](O)[C@@]2(C)C3=C(C(=O)C[C@]12C)[C@@]1(C)CCC(=O)C(C)(C)[C@@H]1CC3=O)C(=O)O (some centres not stated)	> 194 µM
COC(=O)C(C)CC(=O)/C=C(\C)[C@H]1C[C@H](O)[C@@]2(C)C3=C(C(=O)C[C@]12C)[C@@]1(C)CCC(=O)C(C)(C)[C@@H]1C[C@@H]3O (some centres not stated) [METHYL GANODERENATE A]	> 184 µM
COC(=O)C(C)CC(=O)C[C@@H](C)[C@H]1CC(=O)[C@@]2(C)C3=C([C@@H](O)C[C@]12C)[C@@]1(C)CCC(=O)C(C)(C)[C@@H]1C[C@@H]3O (some centres not stated)	> 189 µM
COC(=O)C(C)CC(=O)C[C@@H](C)[C@H]1C[C@H](O)[C@@]2(C)C3=C(C(=O)C[C@]12C)[C@@]1(C)CCC(=O)C(C)(C)[C@@H]1C[C@@H]3O (some centres not stated) [METHYL GANODERATE A]	> 189 µM
CC(CC(=O)C[C@@H](C)[C@H]1CC(=O)[C@@]2(C)C3=C([C@@H](O)C[C@]12C)[C@@]1(C)CCC(=O)C(C)(C)[C@@H]1C[C@@H]3O)C(=O)O (some centres not stated)	22.8 µM
CC(CC(=O)C[C@@H](C)[C@H]1CC(=O)[C@@]2(C)C3=C(C(=O)C[C@]12C)[C@@]1(C)CC[C@H](O)C(C)(C)[C@@H]1C[C@@H]3O)C(=O)O (some centres not stated)	> 193 µM
